Cited source: the supplement of paper PMC9112550

# Test system: Escherichia coli TOP10;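 further: peptides expressed intracellularly from a pBAD plasmid library in pooled LB shake-flask culture, induced with 0.3% L-arabinose, DNA abundance read by NGS, three biological replicates, DESeq2 with apeglm shrinkage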
# PROTOCOL_DETAILS: shrunken log2 fold change of peptide-encoding DNA abundance (4.5 h post-induction vs induction); higher = less antimicrobial activity (less host growth inhibition)
# CONDITION_CONTEXT: time post-induction: 4.5 h; library: site-saturation at positions 5, 18, 19, 20
Tag: rule met if measured shrunken log2 fold change is not below 0.2, rule not met if it is.

Challenge: Is shrunken log2 fold change at least 0.2? Consider RRIRCRPPRLPRPRPRPREWPRP
Response given: rule not met

Challenge: What do you have for RRIRRRPPRLPRPRPRPEGQPRP ?
Response given: rule not met

Challenge: What do you have for RRIRFRPPRLPRPRPRPQMAPRP ?
Response given: rule not met

Challenge: What do you have for RRIRERPPRLPRPRPRPHAHPRP ?
Response given: rule not met

Challenge: What do you have for RRIRFRPPRLPRPRPRPLQLPRP ?
Response given: rule not met

Challenge: What do you have for RRIRGRPPRLPRPRPRPLAKPRP ?
Response given: rule met

Challenge: What do you have for RRIRDRPPRLPRPRPRPCTAPRP ?
Response given: rule not met

Challenge: What do you have for RRIRLRPPRLPRPRPRPPHPPRP ?
Response given: rule met

Challenge: What do you have for RRIRMRPPRLPRPRPRPSQQPRP ?
Response given: rule met

Challenge: What do you have for RRIRMRPPRLPRPRPRPRLNPRP ?
Response given: rule met

Challenge: What do you have for RRIRPRPPRLPRPRPRPHYKPRP ?
Response given: rule not met

Challenge: What do you have for RRIRWRPPRLPRPRPRPMVVPRP ?
Response given: rule not met

Challenge: What do you have for RRIRQRPPRLPRPRPRPSDTPRP ?
Response given: rule not met

Challenge: What do you have for RRIRPRPPRLPRPRPRPEHFPRP ?
Response given: rule not met

Challenge: What do you have for RRIRMRPPRLPRPRPRPCWRPRP ?
Response given: rule not met

Challenge: What do you have for RRIRKRPPRLPRPRPRPKFYPRP ?
Response given: rule not met

Challenge: What do you have for RRIRWRPPRLPRPRPRPNFEPRP ?
Response given: rule not met

Challenge: What do you have for RRIRCRPPRLPRPRPRPLGDPRP ?
Response given: rule met

Challenge: What do you have for RRIRMRPPRLPRPRPRPEGYPRP ?
Response given: rule met

Challenge: What do you have for RRIRDRPPRLPRPRPRPLNCPRP ?
Response given: rule not met

Challenge: What do you have for RRIRARPPRLPRPRPRPKCFPRP ?
Response given: rule not met

Challenge: What do you have for RRIRNRPPRLPRPRPRPDAKPRP ?
Response given: rule not met

Challenge: What do you have for RRIRIRPPRLPRPRPRPVWKPRP ?
Response given: rule not met

Challenge: What do you have for RRIRDRPPRLPRPRPRPSQNPRP ?
Response given: rule not met

Challenge: What do you have for RRIRMRPPRLPRPRPRPEQEPRP ?
Response given: rule not met

Challenge: What do you have for RRIRVRPPRLPRPRPRPLHAPRP ?
Response given: rule met

Challenge: What do you have for RRIRGRPPRLPRPRPRPQTMPRP ?
Response given: rule met

Challenge: What do you have for RRIRERPPRLPRPRPRPSGQPRP ?
Response given: rule not met

Challenge: What do you have for RRIRARPPRLPRPRPRPCQNPRP ?
Response given: rule not met

Challenge: What do you have for RRIRNRPPRLPRPRPRPDMWPRP ?
Response given: rule not met

Challenge: What do you have for RRIRNRPPRLPRPRPRPMRNPRP ?
Response given: rule not met

Challenge: What do you have for RRIRYRPPRLPRPRPRPESTPRP ?
Response given: rule not met

Challenge: What do you have for RRIRTRPPRLPRPRPRPIHCPRP ?
Response given: rule not met

Challenge: What do you have for RRIRKRPPRLPRPRPRPLITPRP ?
Response given: rule not met

Challenge: What do you have for RRIRERPPRLPRPRPRPEKKPRP ?
Response given: rule not met

Challenge: What do you have for RRIRQRPPRLPRPRPRPCYFPRP ?
Response given: rule not met

Challenge: What do you have for RRIRNRPPRLPRPRPRPAIGPRP ?
Response given: rule not met

Challenge: What do you have for RRIRYRPPRLPRPRPRPDMWPRP ?
Response given: rule not met

Challenge: What do you have for RRIRWRPPRLPRPRPRPWPNPRP ?
Response given: rule not met

Challenge: What do you have for RRIRARPPRLPRPRPRPGSTPRP ?
Response given: rule met

Challenge: What do you have for RRIRMRPPRLPRPRPRPWLQPRP ?
Response given: rule not met

Challenge: What do you have for RRIRWRPPRLPRPRPRPAMMPRP ?
Response given: rule met

Challenge: What do you have for RRIRRRPPRLPRPRPRPLQPPRP ?
Response given: rule met

Challenge: What do you have for RRIRHRPPRLPRPRPRPRRLPRP ?
Response given: rule not met

Challenge: What do you have for RRIRQRPPRLPRPRPRPQKSPRP ?
Response given: rule not met

Challenge: What do you have for RRIRHRPPRLPRPRPRPKPMPRP ?
Response given: rule met

Challenge: What do you have for RRIRCRPPRLPRPRPRPAAGPRP ?
Response given: rule met

Challenge: What do you have for RRIRVRPPRLPRPRPRPEGKPRP ?
Response given: rule met

Challenge: What do you have for RRIRFRPPRLPRPRPRPWLKPRP ?
Response given: rule not met
